Assay: Toxicokinetics after daily dermal application
Conditions: Göttingen, minipig, plasma, topical or ocular, […], Tmax, Group 5, minocycline […] + adapalene […] FCD105 Foam, Day 1, median
Counter-ions that a name gives are not always drawn.
Measurement type: Tmax (h)
Numbers only, in h.

Entry CN(C)c1ccc(O)c2c1C[C@H]1C[C@H]3[C@H](N(C)C)C(O)=C(C(N)=O)C(=O)[C@@]3(O)C(O)=C1C2=O [minocycline, minocycline hydrochloride] ; Tmax = 24

---

Assay: Toxicokinetics after daily dermal application
Conditions: Göttingen, minipig, plasma, topical or ocular, […], Tmax, Group 6, adapalene […] + minocycline […] FCD105 Foam, Day 1, median
Measurement type: Tmax (h)
Numbers only, in h.

Entry COc1ccc(-c2ccc3cc(C(=O)O)ccc3c2)cc1C12CC3CC(CC(C3)C1)C2 [adapalene] ; Tmax = 24

---

Experiment: Toxicokinetics after daily dermal application
Details: Göttingen, minipig, plasma, topical or ocular, […], Tmax, Group 4, minocycline […] + adapalene […] FCD105 Foam, Day 1, median
Where a name gives a salt, the structure may show the parent alone.
Measurement type: Tmax (h)
Give bare numbers, in h.

Entry CN(C)c1ccc(O)c2c1C[C@H]1C[C@H]3[C@H](N(C)C)C(O)=C(C(N)=O)C(=O)[C@@]3(O)C(O)=C1C2=O [minocycline, minocycline hydrochloride] ; Tmax = 4

---

Experiment: in vivo
Conditions: both, Göttingen, minipig, plasma, topical or ocular
Counter-ions that a name gives are not always drawn.
Measurement type: Cmax (ng/mL)
Numbers only, in ng/mL.

Entry CN(C)c1ccc(O)c2c1C[C@H]1C[C@H]3[C@H](N(C)C)C(O)=C(C(N)=O)C(=O)[C@@]3(O)C(O)=C1C2=O [minocycline, minocycline hydrochloride] ; Cmax = 17.4

# credit: patent US20250073251A1
